# measured target: PDGF-Ra (Homo sapiens, UniProt P16234)
# Construct: host or cells: G-292 human osteosarcoma cells
# Sequence (P16234 24-1089): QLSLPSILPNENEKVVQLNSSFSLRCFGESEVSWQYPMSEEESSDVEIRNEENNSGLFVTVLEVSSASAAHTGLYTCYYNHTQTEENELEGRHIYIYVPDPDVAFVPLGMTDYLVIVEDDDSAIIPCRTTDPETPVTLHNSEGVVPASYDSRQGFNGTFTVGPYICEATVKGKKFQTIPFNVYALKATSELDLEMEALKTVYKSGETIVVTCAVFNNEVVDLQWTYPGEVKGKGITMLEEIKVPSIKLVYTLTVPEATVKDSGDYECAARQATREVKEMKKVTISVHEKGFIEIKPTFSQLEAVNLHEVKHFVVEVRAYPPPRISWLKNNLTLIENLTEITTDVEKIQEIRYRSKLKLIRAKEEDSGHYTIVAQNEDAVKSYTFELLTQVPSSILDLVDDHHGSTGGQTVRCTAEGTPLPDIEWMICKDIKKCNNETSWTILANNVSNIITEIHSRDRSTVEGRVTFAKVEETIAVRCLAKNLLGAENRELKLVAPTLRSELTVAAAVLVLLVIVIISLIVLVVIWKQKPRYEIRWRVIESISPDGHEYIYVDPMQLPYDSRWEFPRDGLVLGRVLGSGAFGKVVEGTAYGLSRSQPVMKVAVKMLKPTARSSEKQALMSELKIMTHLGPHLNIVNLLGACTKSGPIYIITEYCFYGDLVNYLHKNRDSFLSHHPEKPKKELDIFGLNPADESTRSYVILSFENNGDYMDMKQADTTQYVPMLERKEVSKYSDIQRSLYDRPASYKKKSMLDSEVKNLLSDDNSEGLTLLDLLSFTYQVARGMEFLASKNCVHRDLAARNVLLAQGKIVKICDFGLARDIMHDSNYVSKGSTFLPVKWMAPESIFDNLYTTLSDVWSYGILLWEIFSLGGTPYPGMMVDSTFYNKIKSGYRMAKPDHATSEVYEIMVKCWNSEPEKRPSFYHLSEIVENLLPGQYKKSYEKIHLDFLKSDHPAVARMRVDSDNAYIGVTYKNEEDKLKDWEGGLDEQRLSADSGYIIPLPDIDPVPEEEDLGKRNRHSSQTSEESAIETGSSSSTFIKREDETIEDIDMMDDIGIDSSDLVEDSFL
# procedure text: Inhibitory activity against PDGF-Ra phosphorylation by PDGF-AA stimulation using G292
# Type: cell-based
# assay conditions: > means inhibition at indicated concentration not more than 50%, < and << not less than 50%; read-out: PDGF (E) IC50
pIC50: −log10 of the molar value.

{"columns": ["compound", "value relation sign", "pIC50"],
 "data": [
  ["COc1cc2nccc(Oc3ccc(NC(=O)NC4CCN(Cc5ccccc5)C4)cc3)c2cc1OC (centres unmarked)", "=", 7.92],
  ["COc1cc2ncnc(Oc3ccc(N)c(N4CCOCC4)c3)c2cc1OC", "=", 7.29],
  ["COc1cc2ncnc(Oc3ccc(NC(=S)NC(=O)Cc4cccs4)cc3)c2cc1OC", "=", 7.47],
  ["COc1cc2ncnc(Oc3ccc(NC(=S)NCCN4CCOCC4)cc3)c2cc1OC", "=", 7.19],
  ["COc1cc2nccc(Oc3ccc(NC(=S)NC(=O)C(C)Oc4ccccc4Cl)cc3)c2cc1OC (centres unmarked)", "=", 7.89],
  ["CCCCC(C)C(=O)NC(=S)Nc1ccc(Oc2ccnc3cc(OC)c(OC)cc23)c(Cl)c1 (centres unmarked)", "=", 7.32],
  ["COc1cc2nccc(Oc3ccc(NC(=S)NC(=O)N(CCCl)CCCl)cc3Cl)c2cc1OC", "=", 7.36],
  ["COc1cc2nccc(Oc3ccc(NC(=O)OCc4ccccn4)c(C)c3C)c2cc1OC", "=", 7.77],
  ["CCOCCC(=O)NC(=S)Nc1ccc(Oc2ccnc3cc(OC)c(OC)cc23)cc1", "=", 7.72],
  ["COc1cc2nccc(Oc3ccc(NC(=S)NCCCn4ccnc4)c(C)c3C)c2cc1OC", "=", 7.27],
  ["CCCCN(CCCC)CCNC(=O)Nc1ccc(Oc2ncnc3cc(OC)c(OC)cc23)cc1", "=", 7.66],
  ["COc1cc2nccc(Oc3cc(C)c(NCCCOc4ccccc4C)cc3C)c2cc1OC", "<", 7.00],
  ["COc1cc2ncnc(Oc3ccc(NC(=O)N[C@@H]4CCN(Cc5ccccc5)C4)cc3)c2cc1OC", "=", 7.77],
  ["COc1cc2nccc(Oc3ccc(NC(=S)NC(=O)c4ccccc4C)c([N+](=O)[O-])c3)c2cc1OC", "=", 7.46],
  ["COc1cc2nccc(Oc3ccc(OCCCOc4cccc(F)c4)cc3)c2cc1OC", "=", 7.57],
  ["COc1cc(Oc2ncnc3cc(OC)c(OC)cc23)ccc1NC(=O)OC1CCCCC1", ">", 8.00],
  ["COc1cc2nccc(Oc3ccc(NC(=S)NC(=O)C4CCCO4)cc3Cl)c2cc1OC (centres unmarked)", "<", 7.00]
]}

###

# measured target: c-kit (Homo sapiens, UniProt P10721)
# Construct: MO7e (human megakaryocytic leukemia cell line) which had been arrested for 20 hr; endogenous in cells; host or cells: MO7e human megakaryocytic leukemia cell line
# Sequence (P10721 26-976): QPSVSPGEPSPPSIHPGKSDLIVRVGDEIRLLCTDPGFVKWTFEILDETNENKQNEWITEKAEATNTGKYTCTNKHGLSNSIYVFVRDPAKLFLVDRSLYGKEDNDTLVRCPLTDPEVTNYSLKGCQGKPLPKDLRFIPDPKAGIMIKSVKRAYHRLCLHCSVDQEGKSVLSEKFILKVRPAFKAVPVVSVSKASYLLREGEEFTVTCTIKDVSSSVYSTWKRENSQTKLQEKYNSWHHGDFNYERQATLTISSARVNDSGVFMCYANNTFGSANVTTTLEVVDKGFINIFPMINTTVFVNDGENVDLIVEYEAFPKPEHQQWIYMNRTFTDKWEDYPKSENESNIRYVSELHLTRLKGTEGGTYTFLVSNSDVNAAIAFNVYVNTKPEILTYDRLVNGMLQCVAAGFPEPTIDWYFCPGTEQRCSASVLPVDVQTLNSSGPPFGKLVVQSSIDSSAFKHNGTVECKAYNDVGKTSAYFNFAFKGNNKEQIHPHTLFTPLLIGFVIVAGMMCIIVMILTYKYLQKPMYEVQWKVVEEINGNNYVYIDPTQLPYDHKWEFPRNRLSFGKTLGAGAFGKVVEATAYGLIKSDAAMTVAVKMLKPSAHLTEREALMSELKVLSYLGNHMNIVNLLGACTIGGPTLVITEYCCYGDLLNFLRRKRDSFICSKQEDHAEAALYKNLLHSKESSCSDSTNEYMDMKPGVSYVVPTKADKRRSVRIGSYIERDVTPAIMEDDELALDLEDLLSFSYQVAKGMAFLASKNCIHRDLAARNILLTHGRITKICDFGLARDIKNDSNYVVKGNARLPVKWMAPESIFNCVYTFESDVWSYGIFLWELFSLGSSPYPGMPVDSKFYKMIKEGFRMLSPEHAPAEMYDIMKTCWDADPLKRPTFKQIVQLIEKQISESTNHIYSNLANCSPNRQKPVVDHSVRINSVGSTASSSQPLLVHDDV
# procedure text: Inhibitory activity against c-kit autophosphorylation (MO7e cells, h-SCF)
# Format: cell-based
# assay conditions: MO7e cells, 50 ng/ml h-SCF; read-out: c-kit IC50
# note: boundary value 300 nM maps to Not fulfilled; IC50 below it maps to Fulfilled

{"columns": ["molecule", "measured target", "discrete label"],
 "data": [
  ["COc1cc2nccc(Oc3ccc(NC(=S)NC(=O)C4CCCO4)cc3)c2cc1OC (stereo not drawn)", "c-kit (Homo sapiens, UniProt P10721)", "Not fulfilled"],
  ["COc1cc2nccc(Oc3ccc(NC(=O)OCN4C(=O)c5ccccc5C4=O)c(C)c3C)c2cc1OC", "c-kit (Homo sapiens, UniProt P10721)", "Not fulfilled"],
  ["COc1cc2nccc(Oc3ccc(NC(=O)NN4CCCCC4)cc3)c2cc1OC", "c-kit (Homo sapiens, UniProt P10721)", "Not fulfilled"],
  ["COc1cc2nccc(Oc3ccc(NC(=S)NC(=O)CCCc4ccccc4)cc3Cl)c2cc1OC", "c-kit (Homo sapiens, UniProt P10721)", "Not fulfilled"],
  ["COc1cc2nccc(Oc3cc(C)c(NC(=S)NCCN4CCOCC4)cc3C)c2cc1OC", "c-kit (Homo sapiens, UniProt P10721)", "Fulfilled"],
  ["CCN(CCNC(=O)Nc1ccc(Oc2ncnc3cc(OC)c(OC)cc23)cc1[N+](=O)[O-])c1cccc(C)c1", "c-kit (Homo sapiens, UniProt P10721)", "Fulfilled"],
  ["CCN(C(=O)OC1CCCCCC1)c1ccc(Oc2ncnc3cc(OC)c(OC)cc23)cc1Cl", "c-kit (Homo sapiens, UniProt P10721)", "Not fulfilled"],
  ["COc1cc(Oc2ccnc3cc(OC)c(OC)cc23)ccc1NC(=O)NCCN1CCCCC1", "c-kit (Homo sapiens, UniProt P10721)", "Fulfilled"],
  ["COc1cccc(NCCOc2ccc(Oc3ccnc4cc(OC)c(OC)cc34)cc2)c1", "c-kit (Homo sapiens, UniProt P10721)", "Fulfilled"],
  ["COc1cc2ncnc(Oc3ccc(NC(=O)NCCN4CCOCC4)cc3)c2cc1OC", "c-kit (Homo sapiens, UniProt P10721)", "Not fulfilled"],
  ["C=C(C)COC(=O)Nc1ccc(Oc2ccnc3cc(OC)c(OC)cc23)c(C)c1C", "c-kit (Homo sapiens, UniProt P10721)", "Fulfilled"],
  ["COc1cc2nccc(Oc3ccc(NC(=S)NCCN(C(C)C)C(C)C)c(C)c3C)c2cc1OC", "c-kit (Homo sapiens, UniProt P10721)", "Not fulfilled"],
  ["COc1cc2nccc(Oc3ccc(OCCNc4ccc(C)cc4)cc3)c2cc1OC", "c-kit (Homo sapiens, UniProt P10721)", "Fulfilled"],
  ["CCCCN(CCCC)C(C)CNC(=S)Nc1ccc(Oc2ncnc3cc(OC)c(OC)cc23)cc1 (stereo not drawn)", "c-kit (Homo sapiens, UniProt P10721)", "Not fulfilled"],
  ["COc1cc2nccc(Oc3ccc(NC(=S)NC(=O)CCc4ccccc4C)cc3)c2cc1OC", "c-kit (Homo sapiens, UniProt P10721)", "Fulfilled"],
  ["COc1cc2ncnc(Oc3ccc(NC(=S)NC(=O)Cc4ccccc4C)cc3)c2cc1OC", "c-kit (Homo sapiens, UniProt P10721)", "Not fulfilled"],
  ["COc1cc2nccc(Oc3ccc(NC(=S)NC(=O)[C@H](C)c4ccccc4)cc3)c2cc1OC", "c-kit (Homo sapiens, UniProt P10721)", "Not fulfilled"],
  ["COc1cc2ncnc(Oc3ccc(NC(=O)NCCN4CCCCC4)c(Cl)c3)c2cc1OC", "c-kit (Homo sapiens, UniProt P10721)", "Not fulfilled"],
  ["COc1cc2nccc(Oc3ccc(NC(=O)NC4CCN(Cc5ccccc5)C4)cc3)c2cc1OC (stereo not drawn)", "c-kit (Homo sapiens, UniProt P10721)", "Fulfilled"],
  ["CCCC(CCC)OC(=O)Nc1ccc(Oc2ncnc3cc(OC)c(OC)cc23)cc1", "c-kit (Homo sapiens, UniProt P10721)", "Not fulfilled"],
  ["COc1cc2nccc(Oc3ccc(N(C)C(=O)OCC4CCCCCC4)cc3)c2cc1OC", "c-kit (Homo sapiens, UniProt P10721)", "Fulfilled"],
  ["CCCCC(=O)NC(=S)Nc1ccc(Oc2ccnc3cc(OC)c(OC)cc23)c(Cl)c1", "c-kit (Homo sapiens, UniProt P10721)", "Not fulfilled"],
  ["COc1cc2nccc(Oc3ccc(OCC(=O)Nc4cccc(Cl)c4)cc3)c2cc1OC", "c-kit (Homo sapiens, UniProt P10721)", "Fulfilled"],
  ["C=C(C)COC(=O)Nc1ccc(Oc2ccnc3cc(OC)c(OC)cc23)cc1", "c-kit (Homo sapiens, UniProt P10721)", "Fulfilled"],
  ["COc1cc2ncnc(Oc3ccc(NC(=O)NC4CCN(Cc5ccccc5)CC4)cc3)c2cc1OC [Example 636]", "c-kit (Homo sapiens, UniProt P10721)", "Fulfilled"],
  ["COc1cc2ncnc(Oc3ccc(NC(=O)NC4CCN(Cc5ccccc5)CC4)c(Cl)c3)c2cc1OC", "c-kit (Homo sapiens, UniProt P10721)", "Not fulfilled"],
  ["COc1cc2nccc(Oc3cc(C)c(NC(=S)NCCN4CCCC4)cc3C)c2cc1OC", "c-kit (Homo sapiens, UniProt P10721)", "Not fulfilled"],
  ["COc1cc2ncnc(Oc3ccc(NC(=O)N[C@H]4CCN(Cc5ccccc5)C4)c(Cl)c3)c2cc1OC", "c-kit (Homo sapiens, UniProt P10721)", "Fulfilled"],
  ["COc1cc(Oc2ccnc3cc(OC)c(OC)cc23)ccc1NC(=O)NN1CCCCC1", "c-kit (Homo sapiens, UniProt P10721)", "Not fulfilled"],
  ["COc1cc2nccc(Oc3ccc(NC(=S)NC(=O)COc4ccccc4)cc3)c2cc1OC", "c-kit (Homo sapiens, UniProt P10721)", "Not fulfilled"],
  ["COc1cc2nccc(Oc3ccc(NC(=S)NC(=O)C4C(C)(C)C4(C)C)cc3)c2cc1OC", "c-kit (Homo sapiens, UniProt P10721)", "Not fulfilled"],
  ["CCN(C(=O)OC1CCCCC1)c1ccc(Oc2ncnc3cc(OC)c(OC)cc23)cc1", "c-kit (Homo sapiens, UniProt P10721)", "Fulfilled"]
]}
